test-system: human GPCR sphingosine 1-phosphate receptor 2 (S1PR2) (Homo sapiens)
Sequence (O95136 whole entry): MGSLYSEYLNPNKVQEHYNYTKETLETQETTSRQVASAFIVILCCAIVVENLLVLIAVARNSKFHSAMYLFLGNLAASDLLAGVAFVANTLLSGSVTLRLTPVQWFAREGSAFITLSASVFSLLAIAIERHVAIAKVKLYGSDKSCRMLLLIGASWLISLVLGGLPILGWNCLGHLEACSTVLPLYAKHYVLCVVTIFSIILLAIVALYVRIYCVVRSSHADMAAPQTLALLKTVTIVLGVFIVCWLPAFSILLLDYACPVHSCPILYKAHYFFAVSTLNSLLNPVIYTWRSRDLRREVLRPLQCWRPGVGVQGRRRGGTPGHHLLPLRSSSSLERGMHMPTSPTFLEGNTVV
assay-method-text: S1P2 antagonist assay (Ca2+ flux, S1P at EC80)
test-parameters: CHO-S1PR2 cells, highest concentration 20 μM
Measured EC50, listed per entry.
The reply should be a number in nM, with the unit left off.

Illustrative cases are given below, each with its answer.
*Q* State the recorded EC50 for this entry: CCOc1ncc(NC(=O)NCc2cc(C)c(N3CC(C)OC(C)C3)nn2)cc1Cl (centres unmarked)
*A* 1360

*Q* Next: `CCOc1cc(NC(=O)NCc2cc(C)c(-c3cn(C)nc3C(F)(F)F)nn2)cnc1Cl`
*A* 8.7

*Q* Next: Cc1cc(CNC(=O)Nc2cc(OCC3COCCO3)nc(C(F)(F)F)c2)nnc1-c1cn(C)nc1C(F)(F)F (centres unmarked)
*A* 5430

*Q* Next: `Cc1cc(CNC(=O)Nc2cc(N3CC(F)(F)C3)nc(C(F)(F)F)c2)nnc1-c1cn(C)nc1C(F)(F)F`
*A* 9.3

*Q* Next: `COCCOc1cc(NC(=O)NCc2cc(C)c(-c3cn(C)nc3C(F)(F)F)nn2)cc(Cl)n1`
*A* 414

*Q* Next: `CCOc1nc(Cl)cc(NC(=O)NCc2cc(C)c(-c3cn(C)nc3C(F)(F)F)nn2)c1C`
*A* 8.8

*Q* Next: `CCOc1nc(C)cc(NC(=O)NCc2cc(C)c(-c3cn(C)nc3C(F)(F)F)nn2)c1C`
*A* 9

Let us move to another entry and its EC50.
*Q* State the recorded EC50 for this entry: `CCOc1ncc(NC(=O)NCc2cc(C)c(-c3cn(C)nc3C(F)(F)F)nn2)cc1Cl`
*A* 22

----------
System: HFL-1 cells
assay-method-text: IL8 assay (S1P induced IL-8 production)
Assay type: cell-based
test-parameters: Homo sapiens, HFL1; S1P (1 μM) induced IL-8, HFL-1 cells, without HSA
Measured pEC50, listed per entry.
Notebook: values listed as pEC50 are -log10 of the concentration (mol/L).

Illustrative cases are given below, each with its answer.
*Q* State the recorded pEC50 for this entry: CCOc1nc(C(F)(F)F)cc(NC(=O)NC(C)c2cc(C)c(-c3cn(C)nc3C(F)(F)F)nn2)c1C (centres unmarked) [Compound 45]
*A* 7.39

*Q* Next: CCOc1nc(C#N)cc(NC(=O)NCc2cc(C)c(-c3cn(C)nc3C(F)(F)F)nn2)c1C [Compound 57]
*A* 9.05

*Q* Next: Cc1cc(NC(=O)NCc2cc(C)c(-c3cn(C)nc3C(F)(F)F)nn2)cc(OCC(F)F)n1 [Compound 75]
*A* 7.42

*Q* Next: COc1cc(CNC(=O)Nc2cc(Cl)nc(OCC(F)F)c2)nnc1-c1cn(C)nc1C(F)(F)F [Compound 64]
*A* 7.78

New cases:
*Q* State the recorded pEC50 for this entry: CCOc1ncc(NC(=O)NCc2cc(C)c(-c3cn(C)nc3C(F)(F)F)nn2)cc1Cl [Compound 8]
*A* 7.08

*Q* Next: CCOc1cc(NC(=O)NCc2cc(C)c(-c3cn(C)nc3C(F)(F)F)nn2)cc(C(F)(F)F)n1 [Compound 1]
*A* 8.66

*Q* Next: CCOc1cc(NC(=O)NCc2cc(C)c(-c3cn(C)nc3C)nn2)cc(Cl)n1 [Compound 68]
*A* 6.81

*Q* Next: CCOc1nc(C(F)(F)F)cc(N/C(=N/C#N)NCc2cc(C)c(-c3cn(C)nc3C(F)(F)F)nn2)c1C [Compound 80]
*A* 8.52
